Each recorded value in this set is attributed to the supplement of paper PMC7877785.

Answer each item with its documented self-splicing fitness (ln).
Test: self-splicing fitness, log relative to wild type (ln ratio); higher = more splicing; Tetrahymena group I intron in knt gene, E. coli kanamycin selection, DiMSum; sequences stand for … in CUCUCU…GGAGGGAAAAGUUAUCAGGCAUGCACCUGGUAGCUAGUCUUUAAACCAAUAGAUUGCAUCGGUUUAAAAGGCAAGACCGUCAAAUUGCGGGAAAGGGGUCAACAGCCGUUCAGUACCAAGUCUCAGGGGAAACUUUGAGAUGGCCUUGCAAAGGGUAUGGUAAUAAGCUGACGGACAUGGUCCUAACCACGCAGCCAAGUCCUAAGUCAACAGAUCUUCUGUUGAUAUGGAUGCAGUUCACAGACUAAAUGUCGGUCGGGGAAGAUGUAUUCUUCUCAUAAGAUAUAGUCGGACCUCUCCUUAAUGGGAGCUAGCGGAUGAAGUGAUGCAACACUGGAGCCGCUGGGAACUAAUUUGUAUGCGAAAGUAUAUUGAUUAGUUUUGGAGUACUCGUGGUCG;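 also: selection with 25 µg/mL kanamycin versus none on LB agar overnight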
Conditions: 37 °C
Lab note: record the figure alone, no unit after it.

Reported self-splicing fitness (ln) of `UGGGAGCAAUAUUACGUCCC` : -1.84

Reported self-splicing fitness (ln) of `ACCCAGCAAUAUUACGACUC` : -0.482

Reported self-splicing fitness (ln) of `CCGGAGCAAUAUUACGCUAA` : -2.96

Reported self-splicing fitness (ln) of `UCUGAGCAAUAUUACGGGAU` : -2.54

Reported self-splicing fitness (ln) of `GCUAAGCAAUAUUACGUGAG` : -0.28

Reported self-splicing fitness (ln) of `GUUGAGCAAUAUUACGCGUA` : -0.589

Reported self-splicing fitness (ln) of `CAAGAGCAAUAUUACGGUCU` : -1.97

Reported self-splicing fitness (ln) of `CGCAAGCAAUAUUACGUCGG` : -0.192

Reported self-splicing fitness (ln) of `AGCCAGCAAUAUUACGUGAC` : -2.05

Reported self-splicing fitness (ln) of `GGGCAGCAAUAUUACGUACA` : -0.0196

Reported self-splicing fitness (ln) of `GAUUAGCAAUAUUACGGAGA` : -2.19

Reported self-splicing fitness (ln) of `UUAUAGCAAUAUUACGCUUU` : -2.6

Reported self-splicing fitness (ln) of `CCAAAGCAAUAUUACGCCGU` : -3.3

Reported self-splicing fitness (ln) of `GCUAAGCAAUAUUACGACGU` : 0.155

Reported self-splicing fitness (ln) of `ACUCAGCAAUAUUACGUAAC` : -1.2

Reported self-splicing fitness (ln) of `GGAUAGCAAUAUUACGUCUU` : 0.126

Reported self-splicing fitness (ln) of `CGAUAGCAAUAUUACGCUCG` : -2.03

Reported self-splicing fitness (ln) of `GGGAAGCAAUAUUACGCAUU` : -1.53

Reported self-splicing fitness (ln) of `UUACAGCAAUAUUACGCAUA` : -0.527

Reported self-splicing fitness (ln) of `GCCAAGCAAUAUUACGAGAU` : -2.1

Reported self-splicing fitness (ln) of `CCGAAGCAAUAUUACGGCGG` : -2.15

Reported self-splicing fitness (ln) of `GGCGAGCAAUAUUACGGGGC` : -2.96

Reported self-splicing fitness (ln) of `ACUCAGCAAUAUUACGAACC` : -0.326

Reported self-splicing fitness (ln) of `CAAGAGCAAUAUUACGUUUG` : -2.37

Reported self-splicing fitness (ln) of `CUAGAGCAAUAUUACGUUAG` : -0.217

Reported self-splicing fitness (ln) of `UAUGAGCAAUAUUACGCGGU` : -2.68

Reported self-splicing fitness (ln) of `ACCGAGCAAUAUUACGGUUA` : -1.85

Reported self-splicing fitness (ln) of `UUCGAGCAAUAUUACGAACU` : -0.827

Reported self-splicing fitness (ln) of `CUAGAGCAAUAUUACGGUGC` : -2.32

Reported self-splicing fitness (ln) of `GCAUAGCAAUAUUACGACAC` : -0.214

Reported self-splicing fitness (ln) of `GUUAAGCAAUAUUACGCUGG` : -0.0646

Reported self-splicing fitness (ln) of `UCGUAGCAAUAUUACGCUGC` : -2.48

Reported self-splicing fitness (ln) of `CACCAGCAAUAUUACGUCUU` : -2.64

Reported self-splicing fitness (ln) of `GUAUAGCAAUAUUACGCGGU` : -2.53

Reported self-splicing fitness (ln) of `UAAAAGCAAUAUUACGUGUG` : -0.712

Reported self-splicing fitness (ln) of `CGGCAGCAAUAUUACGUGGG` : -2.24

Reported self-splicing fitness (ln) of `AAAUAGCAAUAUUACGUGCG` : -0.149

Reported self-splicing fitness (ln) of `CCCAAGCAAUAUUACGGGUG` : -1.79

Reported self-splicing fitness (ln) of `AUACAGCAAUAUUACGGUUC` : -1.2

Reported self-splicing fitness (ln) of `GUAGAGCAAUAUUACGACGA` : -0.21

Reported self-splicing fitness (ln) of `UUAUAGCAAUAUUACGGGCA` : -1.32

Reported self-splicing fitness (ln) of `CUGUAGCAAUAUUACGGUAA` : -2.3

Reported self-splicing fitness (ln) of `CCUAAGCAAUAUUACGUAUU` : -3.07

Reported self-splicing fitness (ln) of `UAACAGCAAUAUUACGCCGG` : -0.697

Reported self-splicing fitness (ln) of `CUUCAGCAAUAUUACGGGUC` : -0.947

Reported self-splicing fitness (ln) of `UAUCAGCAAUAUUACGUGGA` : -0.739

Reported self-splicing fitness (ln) of `UAUCAGCAAUAUUACGUAUG` : 0.475

Reported self-splicing fitness (ln) of `AUAUAGCAAUAUUACGAAAA` : -1.72

Reported self-splicing fitness (ln) of `CCCCAGCAAUAUUACGAAGG` : -2.51

Reported self-splicing fitness (ln) of `CGUGAGCAAUAUUACGAAUA` : -2.87

Reported self-splicing fitness (ln) of `AGUAAGCAAUAUUACGAUCU` : -0.333

Reported self-splicing fitness (ln) of `GCUCAGCAAUAUUACGGUAC` : -0.709

Reported self-splicing fitness (ln) of `GUUAAGCAAUAUUACGCAAC` : -0.0162

Reported self-splicing fitness (ln) of `AAGCAGCAAUAUUACGGUAG` : -3.25

Reported self-splicing fitness (ln) of `UCAUAGCAAUAUUACGUAAC` : -1.6

Reported self-splicing fitness (ln) of `GUAGAGCAAUAUUACGCACG` : -1.99

Reported self-splicing fitness (ln) of `GAGGAGCAAUAUUACGGCGG` : -1.7

Reported self-splicing fitness (ln) of `GAAAAGCAAUAUUACGUCUA` : 0.0921

Reported self-splicing fitness (ln) of `GAGGAGCAAUAUUACGGUAA` : -2.22

Reported self-splicing fitness (ln) of `UUGCAGCAAUAUUACGUUAU` : -2.6

Reported self-splicing fitness (ln) of `GCUAAGCAAUAUUACGUGCC` : -2.35
